Source listed as ChEMBL document CHEMBL3988442.

organism: Homo sapiens; experiment: To identify inhibition of the IFN signalling (Jak-Stat) pathway via expression of an eGFP reporter gene under the control of an IFN-stimulated response element (ISRE) containing MxA promoter.; format: functional; set-up: scale not given: direction of the effect not stated beside the values; settings: 30 µM
reported property: Percent Effect (%)
Numbers only, in %.

Here's what some known entries look like.
molecule: Cc1cncc(C(=O)N2CCCCC2c2nc(C)cs2)c1 (stereo not given)
reported property: Percent Effect
value reported: 16.2

molecule: CCOc1ccccc1-c1noc(CN2CC(n3cccn3)C2)n1
reported property: Percent Effect
value reported: 4.34

molecule: COCCOc1ccccc1C(=O)N1CCCCC1c1nccs1 (stereo not given)
reported property: Percent Effect
value reported: -0.874

molecule: O=S(=O)(NCC1CCN(c2ccccn2)CC1)c1ccccc1F
reported property: Percent Effect
value reported: 14.5

For each listed entry, give its Percent Effect.
1. CCOc1ncccc1CNC(=O)N1CCCC1c1ccncc1 (stereo not given)
2. CCCN1C(=O)CC(N2CCN(c3ccc(F)cc3)CC2)C1=O (stereo not given)
3. O=C(CC1CC1)NCc1cc(=O)n2c(n1)CN(Cc1ccoc1)CCC2

1: 12.2; 2: 11.5; 3: 4.85

---

target: Arginase-2, mitochondrial (Homo sapiens) (UniProt P78540); test: in vitro enzyme assay to detect the production of urea directly proportional to the activity of Arginase II; assay type: functional; set-up: scale not given: in the data most compounds retested in dose-response had high values; settings: 33.3 µM
Sequence (P78540 whole entry): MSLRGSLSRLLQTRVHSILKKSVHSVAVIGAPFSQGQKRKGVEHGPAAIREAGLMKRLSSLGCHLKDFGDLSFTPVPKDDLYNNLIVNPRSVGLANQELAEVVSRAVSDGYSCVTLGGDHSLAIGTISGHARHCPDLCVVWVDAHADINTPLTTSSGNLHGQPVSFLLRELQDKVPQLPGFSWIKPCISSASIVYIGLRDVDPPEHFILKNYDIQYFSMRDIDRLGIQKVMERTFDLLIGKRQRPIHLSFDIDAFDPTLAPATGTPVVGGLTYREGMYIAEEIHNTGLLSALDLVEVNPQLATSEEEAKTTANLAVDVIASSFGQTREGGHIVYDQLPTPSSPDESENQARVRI
Record form. Attribute: Percent Effect. Fill in for each entry.
One number for each entry, in %.

Here's what some known entries look like.
molecule: Nc1nc(CN2CCCC(Cn3cncn3)C2)nc2ccccc12 (configuration not stated)
Percent Effect (%): -2.03

molecule: Cc1nc(CN2CCc3cncnc3C2)oc1C
Percent Effect (%): 16.8

molecule: O=C(c1ccc(F)c(F)c1)N1CCCC(Nc2ccc(F)cc2)C1 (configuration not stated)
Percent Effect (%): -2.86

molecule: CCOCC(=O)NC1(c2cccc(Br)c2)CC1
Percent Effect (%): -2.38

molecule: Cc1ccc(C(C)NC(=O)Cc2c(C)nc3c(c2C)c(=O)[nH]n3C)o1 (configuration not stated)
Percent Effect (%): -11

For each listed entry, give its Percent Effect.
1. OC1CCN(Cc2cc3c(cc2Br)OCCO3)CC1
2. Cn1cc(-c2cnc(N3CCOCC3)nc2)cc1C(=O)NCCO
3. Cn1cc(C(=O)NCc2cn3c(n2)CN(CC2CCOCC2)CC3)cn1
4. Cn1ccnc1CN1CCN(CC(O)c2ccco2)CC1 (configuration not stated)
5. CCN(CC(=O)NC)S(=O)(=O)N1CCCCCC1

1: 4.42; 2: 5.83; 3: 1.67; 4: -0.632; 5: 3.72

For each listed entry, give its Percent Effect.
1. CC(C)OCc1ccc(CNC(=O)CC(F)(F)F)cc1
2. Cc1nc(C)n(C2CCCN(C(=O)c3cc(C(N)=O)cs3)C2)n1 (configuration not stated)

1. 0.719
2. 1.07

---

Record form. Attribute: Percent Effect. Fill in for each entry.
biological target: AMP-activated protein kinase, AMPK (Homo sapiens) (UniProt P54646+O43741+P54619+Q9UGJ0+Q9Y478+Q13131+Q9UGI9); assay: AMP-dependent Kinase enzyme assay. An in vitro enzyme assay that detects ADP turnover that is directly proportional to AMPK activity. This uses naive AMPK that is activated during the assay with MK-8722; type: functional; set-up: scale not given: direction of the effect not stated beside the values; details: 30 µM

compound: Cc1nc[nH]c1-c1nc2cc(S(=O)(=O)N3CCCC3)ccc2n1C
value reported: 12.9%
--
compound: O=C(Cc1ccc(F)cc1)N1CCCCC1c1ccn2ccnc2n1 (stereo unspecified)
value reported: 14.8%
--
compound: Cc1noc(C(C)C)c1C(=O)NS(=O)(=O)c1ccc2c(c1)OCCCO2
value reported: 4.57%

For each listed entry, give its Percent Effect.
1. O[C@H]1CCN(Cc2ccoc2)[C@H]1Cc1cccnc1
2. CN(CCn1cccn1)S(=O)(=O)N1CCCC1c1ccco1 (stereo unspecified)
3. Cc1nn(C)c2c(N3CCN(C(=O)C4CCC4)CC3)ncnc12
4. N#Cc1ccc(C(=O)NCCCNc2ccc(C(F)(F)F)cn2)cc1
5. CC(C)COC(C)C(=O)NCc1ccc(N(C)C)cc1 (stereo unspecified)
6. COCCOc1ccc(NC(=O)N2CCCC2c2cc(C)no2)cn1 (stereo unspecified)
7. CN(C)C(=O)N1C[C@H]2CN(Cc3cccc(F)c3)C(=O)[C@H]2C1

3.99%
-2.17%
2.37%
3.77%
3.83%
0.449%
7.46%

Suppose we examine the compound CN(C)c1ncnc2c1CCN(CC1CCOC1)CC2 (stereo unspecified) ; what Percent Effect value has been reported?
4.65%

---

Molecular target: Tyrosyl-tRNA synthetase, putative (Trypanosoma cruzi (strain CL Brener))
Sequence (whole entry): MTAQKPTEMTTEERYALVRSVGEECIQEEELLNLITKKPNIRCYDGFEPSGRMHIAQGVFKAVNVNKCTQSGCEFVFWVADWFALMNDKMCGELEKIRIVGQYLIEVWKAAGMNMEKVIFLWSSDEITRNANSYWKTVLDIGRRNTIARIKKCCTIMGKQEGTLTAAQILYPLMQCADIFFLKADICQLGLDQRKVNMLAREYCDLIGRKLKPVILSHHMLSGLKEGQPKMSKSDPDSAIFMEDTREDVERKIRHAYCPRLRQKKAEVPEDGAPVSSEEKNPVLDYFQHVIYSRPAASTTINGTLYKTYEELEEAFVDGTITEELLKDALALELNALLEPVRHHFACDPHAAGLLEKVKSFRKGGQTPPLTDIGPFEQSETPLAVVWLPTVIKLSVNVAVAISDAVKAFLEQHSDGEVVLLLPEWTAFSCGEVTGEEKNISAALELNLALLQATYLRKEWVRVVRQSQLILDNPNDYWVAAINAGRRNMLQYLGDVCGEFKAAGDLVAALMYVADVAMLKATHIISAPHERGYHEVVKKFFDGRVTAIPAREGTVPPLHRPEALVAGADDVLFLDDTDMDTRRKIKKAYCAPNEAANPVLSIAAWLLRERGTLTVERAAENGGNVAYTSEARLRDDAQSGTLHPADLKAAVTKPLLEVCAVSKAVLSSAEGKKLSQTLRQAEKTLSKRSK
Experiment: Trypanosoma cruzi tyrosyl tRNA synthetase (TcYRS) SOP
Type: functional
Design: scale not given: direction of the effect not stated beside the values
Details: 30 µM
Rule: Percent Effect of 10% or more gives Satisfied; anything lower gives Not satisfied.

Here are 8 molecules together with their reported answers.
molecule: OC(COc1ccccc1)CN1CCC(c2ccn[nH]2)CC1 (stereo unspecified)
qualitative label: Satisfied
//
molecule: Cn1cccc1CCC(=O)N1CCC2(CC1)c1ccccc1CC2O (stereo unspecified)
qualitative label: Satisfied
//
molecule: COC(=O)c1cccc(C(=O)N2CCN(c3ccccc3F)CC2)n1
qualitative label: Satisfied
//
molecule: O=C(c1cccc(Cn2ccnc2)c1)N1CCCC(n2ccnc2)C1 (stereo unspecified)
qualitative label: Satisfied
//
molecule: Cc1nn(C)c(N(C)C)c1CNCc1cccc(OCCN(C)C)c1
qualitative label: Not satisfied
//
molecule: O=C(NCCCN1CCOCC1)Nc1cnc2cc(Cl)ccc2c1O
qualitative label: Not satisfied
//
molecule: O=C(c1cccnc1N1CCOCC1)N1CCCC(n2ccnc2)C1 (stereo unspecified)
qualitative label: Satisfied
//
molecule: CN(C)C(=O)c1ccc2c(c1)N(C)C(CC(=O)NC(C)(C)CO)CO2 (stereo unspecified)
qualitative label: Not satisfied

In plain terms: is recorded Percent Effect at least 10% for Cc1nnc2n1CCN(Cc1ncc(-c3ccc(Cl)cc3)o1)C2 ?
Not satisfied

# repeat for CCN1CC2(CC1=O)CN(Cc1ccco1)CCN(C(=O)N(C)C)C2 (stereo unspecified)
Satisfied

---

Record form. Attribute: Percent Effect. Fill in for each entry.
organism: Homo sapiens; test: To identify inhibition of the IFN signalling (Jak-Stat) pathway via expression of an eGFP reporter gene under the control of an IFN-stimulated response element (ISRE) containing MxA promoter.; format: functional; parameters: scale not given: direction of the effect not stated beside the values; conditions: 30 µM
One number for each entry, in %.

Here's what some known entries look like.
compound: O=C(C1CCCc2[nH]ncc21)N1CCCC1 (centres undefined)
unit spec: %
value reported: -17.4

compound: Cn1cc(CN2CC3(CCN(C(=O)c4ccoc4)C3)C2)cn1
unit spec: %
value reported: 15.8

compound: O=C(Cn1cnc(-c2ccccc2)cc1=O)Nc1ccncc1
unit spec: %
value reported: 26.1

For each listed entry, give its Percent Effect.
1. Cc1cnn(CCC(=O)N2CCOC(c3nc(C(C)(C)C)n[nH]3)C2)c1 (centres undefined)
2. COc1ccc(CN2C[C@@H]3COC[C@]3(COc3cccnc3)C2)cc1
3. Cc1nonc1CC(=O)N1C[C@@H]2CC[C@H](C1)N(Cc1ccccc1)C2=O
4. CCn1nc2c(cc1=O)CN(Cc1nc(N)c3ccccc3n1)CC2

1. 20.6
2. -15.2
3. 0.776
4. -3.85

For each listed entry, give its Percent Effect.
1. CCc1noc(C)c1C(=O)N1CCCC1c1c(C)nn(C)c1OC (centres undefined)
2. Cc1noc(CCCC(=O)NC(C)c2cccnc2)n1 (centres undefined)
3. COc1cccc(COCC(=O)N2CCCC(N3CCCC3)CC2)c1 (centres undefined)
4. COc1ccccc1C(=O)NC(C)CC(=O)O (centres undefined)
5. Cc1nc(CN2CCCC2c2nc(C(C)C)no2)cs1 (centres undefined)

[-17.3, 21.4, -5.01, 12.6, -11.9]

For each listed entry, give its Percent Effect.
1. Cc1ccc(C(=O)N2CCN(CCCSCC#N)CC2)o1
2. Cc1nn(C)c(N(C)C)c1CNCc1cccc(CN(C)C(C)C)c1
3. CC(C)CN(C)c1ccc(C(=O)N2CCCC2c2cnn(C)c2)cn1 (centres undefined)
4. COCCN1CCC2(CC1)CN(C(=O)N(C)C)c1ccc(C)cc12
5. Cn1nc(C2CCN(C(=O)Cc3cccc(F)c3)CC2)c2cccnc21
6. CC1(NC(=O)Cc2csc(C(C)(C)C)n2)CCS(=O)(=O)C1 (centres undefined)
7. Cc1nc(C2CCCN2CC(=O)NCCOc2ccccc2)no1 (centres undefined)
8. Cn1cnnc1C1CCCN(C(=O)NCc2ccc3c(c2)OCO3)C1 (centres undefined)

[18.1, -7.67, 11.2, 12.1, 14.9, 17.5, -2.83, -5.11]

For each listed entry, give its Percent Effect.
1. COc1ccccc1CCNC(=O)CN1CCCC1c1noc(C)n1 (centres undefined)
2. COc1ccc2c(c1)C1(CCN(Cc3ccoc3)CC1)N(C)CC2
3. O=S(=O)(N(Cc1ccccn1)C1CC1)N1CCCC1c1ccco1 (centres undefined)
4. Cc1n[nH]c(C2CN(C(=O)c3ccco3)CCO2)n1 (centres undefined)
5. CC(C)n1ccnc1C1CCCN(c2ccnc3ccccc23)C1 (centres undefined)
6. CC(C)(C)c1nc(CN2CCCC2Cn2cccn2)no1 (centres undefined)
7. COc1cc(CNC(=O)CNc2cc(Cl)ccc2OC)ccn1
8. CC(C)COCC(NC(=O)c1cccnc1)c1ccco1 (centres undefined)

1. 5.32
2. -0.746
3. 5.33
4. 25.8
5. 53.9
6. 18.5
7. 9.38
8. 16.3

For each listed entry, give its Percent Effect.
1. CCOCC1CN(S(=O)(=O)N(C)C)Cc2cnn(C)c21 (centres undefined)
2. O=C(COc1cccc(Br)c1)N1CCOCC1c1ncon1 (centres undefined)
3. Cn1cnnc1C1CCCN(C(=O)NCc2cc[nH]n2)C1 (centres undefined)
4. c1coc(CN2Cc3nccn3CC(Cn3cncn3)C2)c1 (centres undefined)
5. Cc1nccn1CCC1CCCCN1Cc1ccncc1 (centres undefined)
6. Cc1cc(CN2CCc3nn(C)c(=O)cc3C2)on1

[11.6, -26.1, 4.39, -3.99, 25.9, -5.36]

For each listed entry, give its Percent Effect.
1. Cc1cc(CN2CCN(CC(O)c3ccccc3)CC2)no1 (centres undefined)
2. CSc1ncccc1C(=O)N1C[C@H]2CC[C@@H]1CN(c1cnccn1)C2
3. Cc1ccc(C)c(NC(=O)c2n[nH]c(-n3cnnc3)n2)c1
4. COc1ccccc1S(=O)(=O)N1CCC(Oc2cccnn2)CC1
5. CCn1ncc2c1C(COC)CN(Cc1ccsc1)C2 (centres undefined)

-14.5
-1.66
18.5
16.2
5.76

For each listed entry, give its Percent Effect.
1. COc1ccnc(N2CCN(C(=O)c3csc(C4CC4)n3)CC2)n1
2. CC(Cn1cccn1)NC(=O)N(C)Cc1ccc(Cl)s1 (centres undefined)
3. CC(C)CC(=O)N1CCc2nc(N3CCOCC3)nc(NC(C)C)c2C1
4. Cc1cc(C)c(CNC(=O)NCC2CCCN2C)c(=O)[nH]1 (centres undefined)
5. Cn1cc(-c2cnc(N3CCOCC3)nc2)cc1C(=O)NCCO

[0.351, 2.27, 8.78, 25.4, -3.42]

For each listed entry, give its Percent Effect.
1. CS(=O)(=O)N1CCOCC2(CN(Cc3ccsc3)CCO2)C1 (centres undefined)
2. O=C(CCc1ccc(=O)[nH]n1)N1CCCC(COc2ccc(F)cc2)C1 (centres undefined)

10.5
5.9
